system: Bacillus subtilis; assay: Antibacterial activity against Bacillus subtilis NBRC 13719 after overnight incubation by microdilution method; format: functional; conditions: Bacillus subtilis, NBRC 13719; read-out: MIC
READOUT_TYPE: MIC

O=c1c2ccc(O)cc2oc2cc(O)cc(O)c12 > 100 µM
COc1cc(O)c2c(=O)c3c(OC)cc(OC)cc3oc2c1 > 100 µM
Oc1ccc(O)c(O)c1 > 100 µM
